This collection of values is drawn from patent US20240190888A1.

ASSAY_TARGET: TAAR1 receptor (Homo sapiens, UniProt Q96RJ0)
Construct: expressed in transfected cells
Sequence (Q96RJ0 whole entry): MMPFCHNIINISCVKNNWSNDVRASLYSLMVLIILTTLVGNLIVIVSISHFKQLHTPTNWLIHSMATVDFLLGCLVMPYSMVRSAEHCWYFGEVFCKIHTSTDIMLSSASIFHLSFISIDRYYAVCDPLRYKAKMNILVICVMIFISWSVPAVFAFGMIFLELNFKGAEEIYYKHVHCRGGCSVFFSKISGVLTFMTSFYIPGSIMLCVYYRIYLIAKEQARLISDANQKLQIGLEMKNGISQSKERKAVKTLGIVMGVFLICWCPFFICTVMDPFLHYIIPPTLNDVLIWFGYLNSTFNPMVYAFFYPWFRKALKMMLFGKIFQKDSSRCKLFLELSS
ASSAY_NOTES: TAAR1 receptor cAMP agonist test (HEK293 cell line stably expressing TAAR1 receptor)
Type: cell-based
CONDITIONS: maximal activation rate relative to PEA positive control
MEASURED_ATTRIBUTE: TAAR1 Max Act % (%)

CNC[C@H]1OCC2(CC2)c2sccc21 (single isomer, unassigned) : 95.8
[2H]C([2H])([2H])NC[C@H]1OCC2(CC2)c2sccc21 : 97.1
[2H]C([2H])([2H])NCC1OCC2(CC2)c2sccc21 (stereo not shown) : 97.7
CNCC1OCC2(CC2)c2sccc21 (stereo not shown) : 95.5
[2H]C([2H])([2H])NCC1OCC2(CC2)c2ccsc21 (stereo not shown) : 93.3
CNCC1OCC2(CC2)c2ccsc21 (stereo not shown) : 96.6
CNC[C@@H]1OCC2(CC2)c2ccsc21 (single isomer, unassigned) : 96.1
